# test-protocol: chemical genetic growth profiling, strain panel (AID 1159580);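 further: tested at 20 µM; growth read once vehicle control cultures reached saturation at 30 °C; 1 = growth at the plate median or of vehicle wells; lower values mean less growth of the strain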
# measurement-conditions: S. cerevisiae deletion strains, growth OD, locus YIL125W, strain kgd1, stronger effect = lower value
About 2,000 (36%) of roughly 5,500 compounds were called active. Not shown: some 18% with an inconclusive outcome. Some of the results follow.
Parameter: normalized growth. Scope: all listed entries.
experimental-endpoint: normalized growth

{"molecule": "C=CCc1ccccc1OCC(O)CNC(C)C (stereo unspecified)", "experimental-endpoint": "normalized growth", "reading": 1.01}
{"molecule": "CSc1ccc2c(c1)C(N1CCN(C)CC1)Cc1ccccc1S2 (stereo unspecified)", "experimental-endpoint": "normalized growth", "reading": 0.977}
{"molecule": "O=C(/C=C/c1ccccc1)c1ccc(O)cc1", "experimental-endpoint": "normalized growth", "reading": 0.931}
{"molecule": "Cc1coc2ccccc2c1=O", "experimental-endpoint": "normalized growth", "reading": 1.03}
{"molecule": "COc1ccc2c(=O)cc(-c3ccccc3OC)oc2c1", "experimental-endpoint": "normalized growth", "reading": 0.938}
{"molecule": "COc1cc2c3cc1Oc1cc(ccc1O)C[C@@H]1c4c(cc(OC)c(O)c4Oc4ccc(cc4)C[C@@H]3N(C)CC2)CC[N+]1(C)C", "experimental-endpoint": "normalized growth", "reading": 1.01}
{"molecule": "CC(C)[C@]12O[C@H]1[C@@H]1O[C@@]13[C@@]1(C)CCC4=C(COC4=O)[C@@H]1C[C@@H]1O[C@@]13C2=O", "experimental-endpoint": "normalized growth", "reading": 1.01}
{"molecule": "CC(C)c1ccc2c(c1O)CC[C@H]1C3=C(CC[C@]21C)C(=O)OC3", "experimental-endpoint": "normalized growth", "reading": 0.954}
{"molecule": "O=c1oc2ccccc2c(O)c1Cc1c(O)c2ccccc2oc1=O", "experimental-endpoint": "normalized growth", "reading": 0.959}
{"molecule": "CC1=NCCc2c1[nH]c1cc(O)ccc21", "experimental-endpoint": "normalized growth", "reading": 0.988}
{"molecule": "CN1CCOC(c2ccccc2)c2ccccc2C1 (stereo unspecified)", "experimental-endpoint": "normalized growth", "reading": 1.01}
{"molecule": "COc1ccc(-c2cc(=O)c3c(OC)cccc3o2)cc1", "experimental-endpoint": "normalized growth", "reading": 1.04}
{"molecule": "CN(N=O)C(=O)N[C@@H]1[C@@H](O)[C@H](O)[C@@H](CO)O[C@@H]1O", "experimental-endpoint": "normalized growth", "reading": 1}
{"molecule": "CN1CCN2c3ccccc3Cc3ccccc3C2C1 (stereo unspecified)", "experimental-endpoint": "normalized growth", "reading": 0.989}
{"molecule": "COC(=O)C[C@H]1C(C)(C)C(=O)[C@@H]2CC3=C4CC(OC)O[C@@H](c5ccoc5)[C@]4(C)CCC3[C@@]1(C)C2=O (stereo partly specified)", "experimental-endpoint": "normalized growth", "reading": 0.998}
{"molecule": "COc1ccc(-c2coc3cc(OC)cc(O)c3c2=O)cc1", "experimental-endpoint": "normalized growth", "reading": 0.969}
{"molecule": "O=c1c(-c2ccccc2)coc2cc(O)cc(O)c12", "experimental-endpoint": "normalized growth", "reading": 0.755}
{"molecule": "COc1cc([C@@H]2c3cc4c(cc3[C@H](O)[C@H]3COC(=O)[C@@H]23)OCO4)cc(OC)c1OC", "experimental-endpoint": "normalized growth", "reading": 0.994}
{"molecule": "O=C1CCc2cc(OCCCCc3nnnn3C3CCCCC3)ccc2N1", "experimental-endpoint": "normalized growth", "reading": 1.01}
{"molecule": "CC1=C2C(=CO[C@H](C)[C@H]2C)C(=O)C(C(=O)O)=C1O", "experimental-endpoint": "normalized growth", "reading": 0.965}
{"molecule": "COc1cc(O)c2c(=O)c(-c3ccc(O)cc3)coc2c1", "experimental-endpoint": "normalized growth", "reading": 0.964}

###

# test-protocol: chemical genetic growth profiling, strain panel (AID 1159580);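 further: tested at 20 µM; growth read once vehicle control cultures reached saturation at 30 °C; 1 = growth at the plate median or of vehicle wells; lower values mean less growth of the strain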
# measurement-conditions: S. cerevisiae deletion strains, growth OD, locus YKL193C, strain SDS22, stronger effect = lower value
In all, about 5,500 compounds went through this assay and about 2,000 (36%) were called active. Another 18% or so got no clear call; they are omitted. This is one part of the list.
experimental-endpoint: normalized growth

{"compound": "Clc1ccccc1N/N=C\\Cc1nnnn1-c1ccccc1", "experimental-endpoint": "normalized growth", "reading": 0.966}
{"compound": "O=C1Nc2ccccc2/C1=N/N=C\\c1cc(Br)cc(Br)c1O", "experimental-endpoint": "normalized growth", "reading": 0.937}
{"compound": "N=c1ccc2nc3c(Cl)c4c(c(Cl)c3oc-2c1S(=O)(=O)O)Nc1ccc(N)c(S(=O)(=O)O)c1O4", "experimental-endpoint": "normalized growth", "reading": 1.01}
{"compound": "O=C1Nc2ccccc2/C1=N/N=C\\c1ccccc1Cl", "experimental-endpoint": "normalized growth", "reading": 0.971}
{"compound": "Cc1cc(C(=O)O/N=C(/N)CSc2ncccc2C(F)(F)F)no1", "experimental-endpoint": "normalized growth", "reading": 0.989}
{"compound": "CC(C)c1ccc(-c2cc(=O)c3ccccc3o2)cc1", "experimental-endpoint": "normalized growth", "reading": 0.928}
{"compound": "N#Cc1c(Br)cnn1Cc1cc(C(F)(F)F)cc(C(F)(F)F)c1", "experimental-endpoint": "normalized growth", "reading": 0.996}
{"compound": "Fc1ccc(N/N=C\\Cc2nnnn2-c2ccccc2)c(F)c1", "experimental-endpoint": "normalized growth", "reading": 0.954}
{"compound": "C/C(=N/Nc1nc(C(C)(C)C)cs1)c1ccc(Cl)c(Cl)c1", "experimental-endpoint": "normalized growth", "reading": 0.991}
{"compound": "CC(C)(C)c1csc(NC(=O)c2ccc(Cl)cc2Cl)n1", "experimental-endpoint": "normalized growth", "reading": 0.958}
{"compound": "N/C(CSc1ncccc1C(F)(F)F)=N/OC(=O)Nc1cccc(Cl)c1", "experimental-endpoint": "normalized growth", "reading": 0.987}
{"compound": "COc1ccc(C2CC(c3ccccc3)=Nc3ccccc3S2)cc1OC (configuration not stated)", "experimental-endpoint": "normalized growth", "reading": 0.976}
{"compound": "CC(C)(C)c1csc(NC(=O)Nc2ccc(Cl)cc2)n1", "experimental-endpoint": "normalized growth", "reading": 0.981}
{"compound": "CC(C)(C)c1csc(NNC(=O)c2ccc(Cl)cc2)n1", "experimental-endpoint": "normalized growth", "reading": 0.967}
{"compound": "O=C(NNC(=O)c1csc(-c2cccs2)n1)c1ccc(C(F)(F)F)cc1", "experimental-endpoint": "normalized growth", "reading": 0.963}
{"compound": "Cc1ccc(C(O)(c2ccccc2)c2ccccc2)c2ccccc12", "experimental-endpoint": "normalized growth", "reading": 0.989}
{"compound": "CC(C)(C)c1cc2nc(C(F)(F)F)cc(NNC(=O)c3ccc(Cl)cc3)n2n1", "experimental-endpoint": "normalized growth", "reading": 0.977}

###

# test-protocol: chemical genetic growth profiling, strain panel (AID 1159580);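 further: tested at 20 µM; growth read once vehicle control cultures reached saturation at 30 °C; 1 = growth at the plate median or of vehicle wells; lower values mean less growth of the strain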
# measurement-conditions: S. cerevisiae deletion strains, growth OD, locus YOR290C, strain snf2, stronger effect = lower value
About 2,000 (36%) of roughly 5,500 compounds were called active. Inconclusive results (about 18%) are left out. This is one part of the list.
Parameter: normalized growth. Scope: all listed entries.

{"smiles-structure": "COc1cc([C@@H]2c3cc4c(cc3[C@H](OC(C)=O)[C@H]3COC(=O)[C@H]23)OCO4)cc(OC)c1OC", "normalized growth": 1}
{"smiles-structure": "O=C(O)c1cn(-c2ccc(F)cc2)c2cc(N3CCNCC3)c(F)cc2c1=O", "normalized growth": 0.965}
{"smiles-structure": "CC1=C2C(=CO[C@H](C)[C@H]2C)C(=O)C(C(=O)O)=C1O", "normalized growth": 0.969}
{"smiles-structure": "COc1ccc(-c2cc(=O)c3c(O)c(OC)c(OC)c(OC)c3o2)cc1", "normalized growth": 0.955}
{"smiles-structure": "C[N+]1(CCCCC[N+]2(C)CCCC2)CCCC1", "normalized growth": 0.996}

###

# test-protocol: chemical genetic growth profiling, strain panel (AID 1159580);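 further: tested at 20 µM; growth read once vehicle control cultures reached saturation at 30 °C; 1 = growth at the plate median or of vehicle wells; lower values mean less growth of the strain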
# measurement-conditions: S. cerevisiae deletion strains, growth OD, locus YHR027C, strain rpn1, stronger effect = lower value
The whole screen tested about 5,500 compounds, of which about 2,000 (36%) were called active. About 18% were inconclusive and are not listed. The list shows a part of the results.
Parameter: normalized growth. Scope: all listed entries.

{"compound": "CC1(C)O[C@@H]2CC3C4CCC5=CC(=O)C=C[C@]5(C)[C@@]4(F)[C@@H](O)C[C@]3(C)[C@]2(C(=O)CO)O1 (some centres undefined)", "normalized growth": 1}
{"compound": "Nc1ccc(C(=O)O)c(O)c1", "normalized growth": 0.997}
{"compound": "C/C(=C\\C(=O)OCCCCCCCCC(=O)O)C[C@@H]1OC[C@H](C[C@@H]2O[C@H]2[C@@H](C)[C@H](C)O)[C@@H](O)[C@H]1O", "normalized growth": 0.987}
{"compound": "CC(=O)O[C@H]1C[C@@]2(C)[C@H](c3ccoc3)OC(=O)[C@H]3O[C@]32[C@@]2(C)C1[C@]1(C)C(C[C@H]2OC(C)=O)C(C)(C)[C@H](OC(C)=O)C[C@@H]1OC(C)=O (some centres undefined)", "normalized growth": 0.993}
{"compound": "O=C1CC[C@]23C=CC(=O)NCCCCNCCCNC(=O)/C=C/c4ccc(c2c4)O[C@@H]3C1", "normalized growth": 1}
{"compound": "CC(=O)Nc1ccc(OC(=O)c2ccccc2O)cc1", "normalized growth": 0.945}
{"compound": "CN1CCOC(c2ccccc2)c2ccccc2C1 (centres undefined)", "normalized growth": 0.98}
{"compound": "O=c1c(-c2cc(O)c(O)c(O)c2)coc2cc(O)c(O)c(O)c12", "normalized growth": 0.893}
{"compound": "NCC(=O)CCC(=O)O", "normalized growth": 1}
